Attribution: BigSolDB 2.1

test-conditions: in ethanol, 328.15 K
measure-name: solubility (mole fraction)

> print(dat)
                         chemical.structure  measured
1  CN1CCN(C(=O)O[C@H]2c3nccnc3C(=O)N2c2ccc(Cl)cn2)CC1    0.0012

====

test-conditions: in acetone, 298.15 K
measure-name: solubility (mole fraction)

> print(dat)
                         chemical.structure                measure.name  measured
1  CN1CCN(C(=O)O[C@H]2c3nccnc3C(=O)N2c2ccc(Cl)cn2)CC1  solubility (mole fraction)    0.0019

====

test-conditions: in ethanol, 313.15 K
measure-name: solubility (mole fraction)

> print(dat)
                         chemical.structure  measured
1  CN1CCN(C(=O)O[C@H]2c3nccnc3C(=O)N2c2ccc(Cl)cn2)CC1    0.0007
